- TARGET OR TEST SYSTEM: T1, GST-Grb7-SH2 (UniProt Q14451 415-532)
- T1 construct: Captured on the chip by an anti-GST antibody; also called Grb7-SH2 domain
- T1 sequence (Q14451 415-532): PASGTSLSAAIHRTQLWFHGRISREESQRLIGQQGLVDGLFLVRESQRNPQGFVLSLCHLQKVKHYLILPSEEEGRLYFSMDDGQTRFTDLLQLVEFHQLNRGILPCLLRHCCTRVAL
- PROCEDURE SUMMARY: SPR; BIAcore T100, CM5 chip; GST-Grb7-SH2 held (close to 2800 RU) on amine-coupled anti-GST antibody, GST alone on the reference flow cell; peptides 0.015 to 250 uM injected at 30 uL/min for 60-80 s in triplicates; 50 mM Na3PO4, 150-300 mM NaCl, 1 mM DTT, pH 7.4; KD from steady-state responses, single-site binding model
- ASSAY CONDITIONS: both partners purified
pKd: −log10 of the molar value.
EXPERIMENTAL ENDPOINT: pKd

INSERT INTO assay_data (binder, experimental_endpoint, measurement) VALUES
  ('WFEGYDNTFPC (cyclic: thioether linkage that tethers the N-terminal amine to the cysteine side chain, non-phosphorylated cyclic peptide of 11 amino acids identified by phage display; also called first-generation monocyclic peptide; source: synthetic peptide, bought: Purar Chemicals (RP-HPLC, >95% purity)) [G7-18NATE]', 'pKd', 5.11);
